Overview of recorded EC50 for various binders
# target desc: T1, Cynomolgus monkey LRP-8 expressed on HEK293 cells (cynomolgus monkey)
# T1 construct: whole, on cells; also called cyno LRP-8; cLRP-8
# experiment: cell-based binding assay, cynoLRP8
Answer with a number only, understood to be in nM.

[[record]]
binder = "anti-LRP-8 BGK-9D10-2 antibody (CL-105967) (antibody, V domains shown, also called BGT-9D10-2) VH: EVQLVESGGGLVQSGRSLKLSCAASGFTFSNYYMAWVRQAPKKGLEWVATITTSGSRSFYPDSVKGRFTISRDNAKSSLYLQINSLKSEDTATYYCARRGPLGYFDHWGRGVMVTVSS VL: DIQMTQSPPSLPASLGDKVTITCQASQNINKYIAWYQQKPGKAPRLLIRFTSTLESDTPSRFSGSGSGRDYSFSISNVESEDFASYYCLHYDNLPPWTFGGGTKLELK"
observed_property = "EC50"
value_units = "nM"
value_observed = 0.64

[[record]]
binder = "anti-LRP-8 BGK-6B5-2 chimeric antibody (CL-105969) (antibody, V domains shown) VH: QVSLQESGPGILQPSQTLSLTCTFSGFSLSTFGMGVGWIRQPSGKGLEWLANIWWDDDKYYNPSLKNRLTISKDTSNNQAFLKITNVDTADTATYYCARTAKPYYFDYWGHGVMVTVSS VL: HFVLAQPNSVSTNLGNTVKLSCKRSTGNIGSNYVNWYQQHEGRSPTTLIYRDDKRPDGVPDRFSGSFDRSSNSALLTINNVQTEDEADYFCQSYNSGINFFGGGTKLTVL"
observed_property = "EC50"
value_units = "nM"
value_observed = 0.51


Shift focus to the following entry.
Task: Consider the binder chimeric anti-LRP-8 ML199.11H1.5B2 antibody [mu/hu IgG1/k] LALA (antibody, V domains shown, Mouse variable domains on human IgG1/kappa with L234A, L235A (LALA); also called ML199.11H1.5B2 hFc; ML199.11H1.5B2 mu/hu IgG1 m/k) VH: EVQLVESGGDLVKPGGSLKLSCAASRFTFSNYGMSWVRQTPDKRLEWVATISSGGRYTYYPDSVKGRFTISRDNAKNTLYLQMSSLRSEDTAMYYCARDYLYAMDYWGQGTSVTVSS VL: DVVMTQTPLSLPVSLGDQASISCRSSQSLVYSNGNTYLHWYLQKPGQSPKVLMYKVSNRFSGVSDRFSGSGSGTDFTLKISRVEAEDLGVYFCSQSTHVPLTFGAGTKLELK and give its measured EC50.
Result: 0.21
